Would you mind telling me the reported pEC50 of each entry?
target: full length (FL) LXRβ (Homo sapiens, UniProt P55055, DUP175-175); construct: the full length (FL) proteins of LXRα (amino acids 1-447); NP005684; NP009052; expressed in transfected cells; host or cells: HEK293; assay: LXR Gal4 reporter transient transfection assay (FL-M2H Gal4β); type: cell-based; settings: HEK293 cells, full length LXRβ; read-out: FL-M2H Gal4β (EC50 range)
Sequence (P55055 with tags, fused parts or gaps DUP175-175): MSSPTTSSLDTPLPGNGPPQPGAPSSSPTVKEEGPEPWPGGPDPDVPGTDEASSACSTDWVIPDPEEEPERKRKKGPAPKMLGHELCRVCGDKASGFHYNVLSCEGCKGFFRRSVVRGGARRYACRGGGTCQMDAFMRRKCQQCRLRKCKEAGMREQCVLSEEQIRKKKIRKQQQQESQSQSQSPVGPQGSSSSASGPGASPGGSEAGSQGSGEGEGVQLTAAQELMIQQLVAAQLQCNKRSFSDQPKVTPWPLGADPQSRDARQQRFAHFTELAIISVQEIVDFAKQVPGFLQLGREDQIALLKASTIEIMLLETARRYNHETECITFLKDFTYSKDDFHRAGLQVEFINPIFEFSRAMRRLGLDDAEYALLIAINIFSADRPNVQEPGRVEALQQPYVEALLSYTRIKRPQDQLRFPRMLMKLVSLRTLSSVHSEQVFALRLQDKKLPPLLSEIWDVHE
pEC50: −log10 of the molar value.

Look over these answered cases.
{"molecule": "COC(=O)C(C)(C)N(C)C(=O)C1CN(c2cccc(-c3c(-c4ccsc4C#N)c4cc(F)ccc4n3S(=O)(=O)c3ccc(C)cc3)c2)C1", "pEC50": "6.00 to 7.00"}
{"molecule": "N#Cc1cccc(C#N)c1-c1c(-c2cccc(-c3ccc(C(=O)O)cc3Cl)c2)n(S(=O)(=O)c2ccc(C(F)F)cc2)c2ccc(F)cc12", "pEC50": "> 7.00"}
{"molecule": "N#Cc1cccc(C#N)c1-c1c(-c2cccc(-c3ccc(C(=O)O)cc3F)c2)n(S(=O)(=O)C2CCC(C(F)(F)F)CC2)c2ccc(F)cc12 (centres unmarked)", "pEC50": "> 7.00"}

For each listed entry, give its pEC50.
1. COc1c(C(=O)O)ccc(-c2cccc(-c3c(-c4ccccc4C#N)c4cc(F)ccc4n3S(=O)(=O)c3ccc(C(F)F)cc3)c2)c1Cl
2. Cc1cccc(C#N)c1-c1c(-c2cccc(-c3ccc(C(=O)O)cc3Cl)c2)n(S(=O)(=O)c2ccc(C(F)F)cc2)c2ccc(F)cc12 [11/36]
3. Cc1ccc(S(=O)(=O)n2c(-c3cccc(-n4ccc(C(=O)O)cc4=O)c3)c(-c3ccsc3C#N)c3cc(F)ccc32)cc1

1. > 7.00
2. > 7.00
3. 6.00 to 7.00

For every listed record, write down its pEC50.
1. Cc1ccc(S(=O)(=O)n2c(-c3cccc(-c4ccc(C(=O)O)nc4)c3)c(-c3ccsc3C#N)c3cc(F)ccc32)cc1
2. CC1(C)CCN(S(=O)(=O)n2c(-c3cccc(-c4ccc(C(=O)O)cc4)c3)c(-c3ccsc3C#N)c3ccccc32)CC1
3. Cc1ccc(S(=O)(=O)n2c(-c3cccc(-c4ccc5c(C(=O)O)n[nH]c5c4)c3)c(-c3ccsc3C#N)c3cc(F)ccc32)cc1
4. Cc1ccc(S(=O)(=O)n2c(-c3cccc(N4CC(C(=O)O)C4)c3)c(-c3ccsc3C#N)c3cc(F)c(Cl)cc32)cc1
5. Cc1ccc(S(=O)(=O)n2c(-c3cccc(-c4ccc(C(=O)O)cc4Cl)c3)c(-c3ccsc3C#N)c3cc(F)ccc32)cc1

1: > 7.00; 2: 6.00 to 7.00; 3: 6.00 to 7.00; 4: > 7.00; 5: > 7.00

// for each molecule below, give its pEC50
1. Cc1ccc(S(=O)(=O)n2c(-c3cccc([C@@H]4C[C@H]4C(=O)O)c3)c(-c3ccsc3C#N)c3ncccc32)cc1 (relative stereo)
2. Cc1ccc(S(=O)(=O)n2c(-c3cccc(-c4cc(F)c(CO)c(S(C)(=O)=O)c4)c3)c(-c3ccsc3C#N)c3cc(F)ccc32)cc1
3. COc1cccnc1-c1c(-c2cccc(-c3ccc(C(=O)O)cc3Cl)c2)n(S(=O)(=O)c2ccc(C(F)F)cc2)c2ccc(F)cc12
4. Cc1ccc(S(=O)(=O)n2c(-c3cccc(-c4ccc(C(=O)NCCS(=O)(=O)O)cc4Cl)c3)c(-c3ccsc3C#N)c3cc(F)ccc32)cc1
5. N#Cc1cccc(C#N)c1-c1c(-c2cccc(-c3ccc(C(=O)O)cc3F)c2)n(S(=O)(=O)c2ccc(C(F)F)cc2)c2ccc(F)cc12
6. O=C(O)c1ccc(-c2cccc(-c3c(-c4ccccc4)c4cc(F)ccc4n3S(=O)(=O)c3ccc(C(F)F)cc3)c2)c(Cl)c1 [C11/39, reference compound]

["6.00 to 7.00", "> 7.00", "> 7.00", "6.00 to 7.00", "> 7.00", "> 7.00"]
